# Tested on: DU-145 prostate
# protocol text: NCI-60 one-dose screen, 48 h (100 = growth as untreated, 0 = no growth, -100 = all killed)
# condition context: 10 µM unless noted
About 83,000 compounds went through this panel and 20% of them were active in at least one assay; those are over-represented in the sample as a whole.
# note: boundary value 90% maps to -1; growth below it maps to 1

[
  {
    "compound": "O=C1N(c2ccccc2)C(=S)N[C@]12[C@H](c1ccccc1)C1CCCN1[C@]21C(=O)NC2C=CC(Cl)=C[C@H]21 (some centres not stated)",
    "label": -1
  },
  {
    "compound": "CO[C@H]1/C=C/O[C@@]2(C)Oc3c(C)c(O)c4c(c3C2=O)C(=O)C(/C=N/N(c2ccccc2)c2ccccc2)=C(NC(=O)/C(C)=C\\C=C\\[C@H](C)[C@H](O)[C@@H](C)[C@@H](O)[C@@H](C)[C@H](OC(C)=O)[C@@H]1C)C4=O",
    "label": 1
  },
  {
    "compound": "COC(=O)CCCNC(=O)C(=O)c1c(O)c(O)c(C(C)C)c2cc(C)c(-c3c(C)cc4c(C(C)C)c(O)c(O)c(C(=O)C(=O)NCCCC(=O)OC)c4c3O)c(O)c12",
    "label": 1
  },
  {
    "compound": "COc1cc2nc(Nc3ccc(F)cc3)nc(N)c2cc1OC",
    "label": -1
  },
  {
    "compound": "COc1ccc(/C=N/NC(=O)Cn2c(-c3ccc(S(C)(=O)=O)cc3)nc3cc(Cl)ccc32)cc1",
    "label": 1
  },
  {
    "compound": "O=C1c2ccccc2C(=O)c2cc(Cn3cc[n+](Cc4ccc5ccccc5c4)c3)ccc21",
    "label": -1
  },
  {
    "compound": "O=C(CC1Sc2ccccc2NC1=O)NNc1ccc(F)cc1 (configuration not stated)",
    "label": -1
  }
]

---

# Tested on: SNB-75 CNS
# protocol text: NCI-60 one-dose screen, 48 h (100 = growth as untreated, 0 = no growth, -100 = all killed)
# condition context: 10 µM unless noted
Compounds without any hit were thinned out: in the full panel of roughly 83,000, 20% have a hit.
recorded endpoint: growth (%)

[
  {
    "input smiles": "Cc1cc(NS(=O)(=O)c2ccccc2)c(OS(=O)(=O)c2ccccc2)cc1C",
    "reported result": 89.5
  },
  {
    "input smiles": "CCOC(=O)c1c(C)[nH]c(C(=O)CCC(=O)OC)c1C",
    "reported result": 106
  },
  {
    "input smiles": "CCCCCOC(=O)c1ccc(NC(=O)CNCC(C)C)cc1",
    "reported result": 86.3
  },
  {
    "input smiles": "Cc1cc(Cc2cc(C)cc(C(C)(C)C)c2O)c(O)c(C(C)(C)C)c1",
    "reported result": 69.3
  },
  {
    "input smiles": "O=C1/C(=C/c2ccc([N+](=O)[O-])cc2)COc2ccc(O)c(O)c21",
    "reported result": 18.8
  },
  {
    "input smiles": "O=C(Nc1ccccc1)c1sc(-c2cccc(C(F)(F)F)c2)cc1O",
    "reported result": 78.5
  },
  {
    "input smiles": "O=C(NC(=S)Nc1ccc(-c2nc3ccccc3[nH]2)cc1)c1ccc2ccccc2c1",
    "reported result": -62.4
  },
  {
    "input smiles": "Cn1ccnc1C(=O)/C=C/c1ccc(C(=O)Nc2ccc(S(F)(F)(F)(F)F)cc2)cc1",
    "reported result": 12.2
  },
  {
    "input smiles": "Cc1nc(Nc2ccc(NC(=S)Nc3ccccc3)cc2)nc2nc(Nc3ccc(S(=O)(=O)O)cc3)[nH]c(=O)c12",
    "reported result": 128
  },
  {
    "input smiles": "COc1ccc(-n2nnc(C(=O)NCCc3c[nH]c4ccc(F)cc34)c2C)cc1",
    "reported result": 93.7
  }
]
